Origin of measurements: paper PMC7886051

# Substrate: CC(C)=CCC/C(C)=C/CC/C(C)=C/CO[P@@](=O)(O)OP(=O)(O)O
# methodNotes: steady-state kinetics of purified enzyme (details in supplement)
# Format: biochemical, Streptomyces coelicolor
# statedConditions: Mg2+-dependent enzyme; assay conditions in supplement
measuredMetric: kcat (s⁻¹)
Give your result in s⁻¹ as a bare value.

Suppose we examine the protein Gd11olS (germacradien-11-ol synthase; N-terminal domain of geosmin synthase) (Streptomyces coelicolor A3(2); W312F) (protein, N-terminal domain, residues 1-366 of geosmin synthase; codon-optimized synthetic gene in pET28a, expressed in E. coli, purified to homogeneity; tag details in supplement) MTQQPFQLPHFYLPHPARLNPHLDEARAHSTTWAREMGMLEGSGVWEQSDLEAHDYGLLCAYTHPDCDGPALSLITDWYVWVFFFDDHFLEKYKRSQDRLAGKAHLDRLPLFMPLDDAAGMPEPRNPVEAGLADLWTRTVPAMSADWRRRFAVATEHLLNESMWELSNINEGRVANPVEYIEMRRKVGGAPWSAGLVEYATAEVPAAVAGTRPLRVLMETFSDAVHLRNDLFSYQREVEDEGELSNGVLVLETFFGCTTQEAADLVNDVLTSRLHQFEHTAFTEVPAVALEKGLTPLEVAAVGAYTKGLQDFQSGGHEWHMRSSRYMNKGERPLAGWQALTGPGTSAADVGALLADAVAQRARSYT ; what kcat value has been reported?
0.000255
